System: HCT-116 (human colorectal cancer cell line)
Assay: MTT cytotoxicity assay, HCT-116 under anoxia or normoxia
Assay type: cell-based
Conditions: HCT-116, activity promotion under anoxia; >100 set as 100
Experimental: We focused our attention on the cytotoxicity of the four series of newly-synthesized compounds (10a–e, 11a–e, 12a–e, and 13a–e) under normoxic or anoxic conditions. The data was calculated by the Logit method and presented as IC50 values in Table 1. All of the newly-synthesized compounds were screened for in vitro cytotoxicity by MTT assay. […]
endpoint.label: HCT-116 Value = IC50(normoxia)/IC50(anoxia)

These solved cases illustrate the format of a correct answer.
>>> recorded_result("Cc1cc(=O)oc2cc(OCc3cn(CCCO[C@H]4O[C@@H]5O[C@@]6(C)CC[C@H]7[C@H](C)CC[C@@H]([C@H]4C)[C@@]57OO6)nn3)ccc12 [13a]")
2.95
>>> recorded_result("Cc1cc(=O)oc2cc(OCCn3cc(CO[C@H]4O[C@@H]5O[C@@]6(C)CC[C@H]7[C@H](C)CC[C@@H]([C@H]4C)[C@@]57OO6)nn3)ccc12 [10a]")
0.86

// moving on: another record for HCT-116 Value = IC50(normoxia)/IC50(anoxia)
Prompt: Note down HCT-116 Value = IC50(normoxia)/IC50(anoxia) recorded for CCOC(=O)c1cc2ccc(OCCCn3cc(CO[C@H]4O[C@@H]5O[C@@]6(C)CC[C@H]7[C@H](C)CC[C@@H]([C@H]4C)[C@@]57OO6)nn3)cc2oc1=O [11e]
Response: 1.57

---

System: HT-29 (human colon carcinoma cell line, overexpresses high amounts of CA IX)
Experiment: MTT cytotoxicity assay, HT-29 under anoxia or normoxia
Assay type: cell-based
Settings: HT-29, activity promotion under anoxia
endpoint.label: HT-29 Value = IC50(normoxia)/IC50(anoxia)
Write no unit; give the number alone.

These solved cases illustrate the format of a correct answer.
>>> recorded_result("Cc1c(C)c2ccc(OCCn3cc(CO[C@H]4O[C@@H]5O[C@@]6(C)CC[C@H]7[C@H](C)CC[C@@H]([C@H]4C)[C@@]57OO6)nn3)cc2oc1=O [10c]")
11.50
>>> recorded_result("Cc1c(C)c2ccc(OCc3cn(CCO[C@H]4O[C@@H]5O[C@@]6(C)CC[C@H]7[C@H](C)CC[C@@H]([C@H]4C)[C@@]57OO6)nn3)cc2oc1=O [12c]")
6.04
>>> recorded_result("C[C@H]1[C@@H](OCCCn2cc(COc3ccc4c(C(F)(F)F)cc(=O)oc4c3)nn2)O[C@@H]2O[C@@]3(C)CC[C@H]4[C@H](C)CC[C@@H]1[C@@]24OO3 [13b]")
3.74
>>> recorded_result("CCOC(=O)c1cc2ccc(OCc3cn(CCCO[C@H]4O[C@@H]5O[C@@]6(C)CC[C@H]7[C@H](C)CC[C@@H]([C@H]4C)[C@@]57OO6)nn3)cc2oc1=O [13e]")
2.22
>>> recorded_result("Cc1cc(=O)oc2cc(OCCCn3cc(CO[C@H]4O[C@@H]5O[C@@]6(C)CC[C@H]7[C@H](C)CC[C@@H]([C@H]4C)[C@@]57OO6)nn3)ccc12 [11a]")
7.17

Prompt: Note down HT-29 Value = IC50(normoxia)/IC50(anoxia) recorded for Cc1cc(=O)oc2cc(OCc3cn(CCO[C@H]4O[C@@H]5O[C@@]6(C)CC[C@H]7[C@H](C)CC[C@@H]([C@H]4C)[C@@]57OO6)nn3)ccc12 [12a]
Response: 3.11

Prompt: Note down HT-29 Value = IC50(normoxia)/IC50(anoxia) recorded for C[C@H]1[C@@H](OCc2cn(CCOc3ccc4c(C(F)(F)F)cc(=O)oc4c3)nn2)O[C@@H]2O[C@@]3(C)CC[C@H]4[C@H](C)CC[C@@H]1[C@@]24OO3 [10b]
Response: 4.99

Prompt: Note down HT-29 Value = IC50(normoxia)/IC50(anoxia) recorded for Cc1c(C)c2ccc(OCc3cn(CCCO[C@H]4O[C@@H]5O[C@@]6(C)CC[C@H]7[C@H](C)CC[C@@H]([C@H]4C)[C@@]57OO6)nn3)cc2oc1=O [13c]
Response: 4.23

Prompt: Note down HT-29 Value = IC50(normoxia)/IC50(anoxia) recorded for COc1cccc2c1C(=O)c1c(O)c3c(c(O)c1C2=O)C[C@@](O)(C(=O)CO)C[C@@H]3O[C@H]1C[C@H](N)[C@H](O)[C@H](C)O1 [DOX, doxorubicin, reference compound]
Response: 1.74

---

# key: entry, value: melting point

These solved cases illustrate the format of a correct answer.
>>> recorded_result("C[C@H]1[C@@H](OCCCn2cc(COc3ccc4c(C(F)(F)F)cc(=O)oc4c3)nn2)O[C@@H]2O[C@@]3(C)CC[C@H]4[C@H](C)CC[C@@H]1[C@@]24OO3 [13b]")
"69 to 71 °C"
>>> recorded_result("C[C@H]1[C@@H](OCCn2cc(COc3ccc4c(C(F)(F)F)cc(=O)oc4c3)nn2)O[C@@H]2O[C@@]3(C)CC[C@H]4[C@H](C)CC[C@@H]1[C@@]24OO3 [12b]")
"77 to 79 °C"
>>> recorded_result("Cc1c(Cl)c(=O)oc2cc(OCc3cn(CCO[C@H]4O[C@@H]5O[C@@]6(C)CC[C@H]7[C@H](C)CC[C@@H]([C@H]4C)[C@@]57OO6)nn3)ccc12 [12d]")
"76 to 78 °C"

// moving on: another record for melting point
Prompt: Note down melting point recorded for Cc1cc(=O)oc2cc(OCc3cn(CCCO[C@H]4O[C@@H]5O[C@@]6(C)CC[C@H]7[C@H](C)CC[C@@H]([C@H]4C)[C@@]57OO6)nn3)ccc12 [13a]
Response: 75 to 77 °C

---

# key: entry, value: HT-29 Value = IC50(normoxia)/IC50(anoxia)
Test system: HT-29 (human colon carcinoma cell line, overexpresses high amounts of CA IX)
Test: MTT cytotoxicity assay, HT-29 under anoxia or normoxia
Type: cell-based
Conditions: HT-29, activity promotion under anoxia
Write no unit; give the number alone.

These solved cases illustrate the format of a correct answer.
>>> recorded_result("C[C@H]1[C@@H](OCc2cn(CCCOc3ccc4c(C(F)(F)F)cc(=O)oc4c3)nn2)O[C@@H]2O[C@@]3(C)CC[C@H]4[C@H](C)CC[C@@H]1[C@@]24OO3 [11b]")
1.63
>>> recorded_result("Cc1cc(=O)oc2cc(OCc3cn(CCCO[C@H]4O[C@@H]5O[C@@]6(C)CC[C@H]7[C@H](C)CC[C@@H]([C@H]4C)[C@@]57OO6)nn3)ccc12 [13a]")
4.30
>>> recorded_result("Cc1c(Cl)c(=O)oc2cc(OCc3cn(CCO[C@H]4O[C@@H]5O[C@@]6(C)CC[C@H]7[C@H](C)CC[C@@H]([C@H]4C)[C@@]57OO6)nn3)ccc12 [12d]")
6.16

Prompt: Note down HT-29 Value = IC50(normoxia)/IC50(anoxia) recorded for Cc1cc(=O)oc2cc(OCCn3cc(CO[C@H]4O[C@@H]5O[C@@]6(C)CC[C@H]7[C@H](C)CC[C@@H]([C@H]4C)[C@@]57OO6)nn3)ccc12 [10a]
Response: 8.35

Prompt: Note down HT-29 Value = IC50(normoxia)/IC50(anoxia) recorded for CCOC(=O)c1cc2ccc(OCc3cn(CCO[C@H]4O[C@@H]5O[C@@]6(C)CC[C@H]7[C@H](C)CC[C@@H]([C@H]4C)[C@@]57OO6)nn3)cc2oc1=O [12e]
Response: 1.88

Prompt: Note down HT-29 Value = IC50(normoxia)/IC50(anoxia) recorded for Cc1c(Cl)c(=O)oc2cc(OCc3cn(CCCO[C@H]4O[C@@H]5O[C@@]6(C)CC[C@H]7[C@H](C)CC[C@@H]([C@H]4C)[C@@]57OO6)nn3)ccc12 [13d]
Response: 1.87

---

Tested on: HT-29 (human colon carcinoma cell line, overexpresses high amounts of CA IX)
Test: MTT cytotoxicity assay, HT-29 under anoxia or normoxia
Assay type: cell-based
Conditions: Homo sapiens; HT-29, anoxia 24 h then normoxia 72 h, MTT; read-out: IC50 HT-29 Anoxia
Strictly below 2 µM in IC50: label 1. Otherwise: label 0.

Take a look at these entries with their results.
>>> qualitative_label("Cc1cc(=O)oc2cc(OCc3cn(CCO[C@H]4O[C@@H]5O[C@@]6(C)CC[C@H]7[C@H](C)CC[C@@H]([C@H]4C)[C@@]57OO6)nn3)ccc12 [12a]")
"label 0"
>>> qualitative_label("COc1cccc2c1C(=O)c1c(O)c3c(c(O)c1C2=O)C[C@@](O)(C(=O)CO)C[C@@H]3O[C@H]1C[C@H](N)[C@H](O)[C@H](C)O1 [DOX, doxorubicin, reference compound]")
"label 1"

Prompt: For Cc1c(C)c2ccc(OCCCn3cc(CO[C@H]4O[C@@H]5O[C@@]6(C)CC[C@H]7[C@H](C)CC[C@@H]([C@H]4C)[C@@]57OO6)nn3)cc2oc1=O [11c] , is the recorded IC50 below the cut-off of 2 µM?
Response: label 0

Prompt: For Cc1c(C)c2ccc(OCCn3cc(CO[C@H]4O[C@@H]5O[C@@]6(C)CC[C@H]7[C@H](C)CC[C@@H]([C@H]4C)[C@@]57OO6)nn3)cc2oc1=O [10c] , is the recorded IC50 below the cut-off of 2 µM?
Response: label 1

Prompt: For Cc1c(Cl)c(=O)oc2cc(OCCn3cc(CO[C@H]4O[C@@H]5O[C@@]6(C)CC[C@H]7[C@H](C)CC[C@@H]([C@H]4C)[C@@]57OO6)nn3)ccc12 [10d] , is the recorded IC50 below the cut-off of 2 µM?
Response: label 1

Prompt: For Cc1c(C)c2ccc(OCc3cn(CCCO[C@H]4O[C@@H]5O[C@@]6(C)CC[C@H]7[C@H](C)CC[C@@H]([C@H]4C)[C@@]57OO6)nn3)cc2oc1=O [13c] , is the recorded IC50 below the cut-off of 2 µM?
Response: label 0

Prompt: For Cc1c(C)c2ccc(OCc3cn(CCO[C@H]4O[C@@H]5O[C@@]6(C)CC[C@H]7[C@H](C)CC[C@@H]([C@H]4C)[C@@]57OO6)nn3)cc2oc1=O [12c] , is the recorded IC50 below the cut-off of 2 µM?
Response: label 0

Prompt: For Cc1c(Cl)c(=O)oc2cc(OCc3cn(CCCO[C@H]4O[C@@H]5O[C@@]6(C)CC[C@H]7[C@H](C)CC[C@@H]([C@H]4C)[C@@]57OO6)nn3)ccc12 [13d] , is the recorded IC50 below the cut-off of 2 µM?
Response: label 0

Prompt: For C[C@H]1[C@@H](OCCn2cc(COc3ccc4c(C(F)(F)F)cc(=O)oc4c3)nn2)O[C@@H]2O[C@@]3(C)CC[C@H]4[C@H](C)CC[C@@H]1[C@@]24OO3 [12b] , is the recorded IC50 below the cut-off of 2 µM?
Response: label 0
